These data points were gathered from patent US5272155A.

ASSAY_TEXT: (-)Nicotine induced mouse lethality after pretreatment
Format: in vivo
EXPERIMENTAL_PARAMETERS: mouse, in vivo, ip; saline pretreatment; read-out: LD50 [95% C.I.] of (-)nicotine
ENDPOINT: LD50 (mg/kg)
Respond with the bare value in mg/kg.

Look up LD50 for this molecule: CN1CCCC1c1cccnc1 (single isomer, unassigned; (-)) [(-)nicotine, reference compound] 7.7
